Ref: the RNAGym collection of RNA variant scans (doi:10.1073/pnas.2313332121)

B1: TPR t1 (parent)
chain: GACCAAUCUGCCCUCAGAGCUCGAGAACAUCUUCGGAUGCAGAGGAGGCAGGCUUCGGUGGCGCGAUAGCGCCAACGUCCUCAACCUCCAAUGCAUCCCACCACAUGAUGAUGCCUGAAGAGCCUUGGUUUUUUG

# Variants of: B1
# assay.comment: polymerase ribozyme fitness, log enrichment relative to wild type (log ratio); higher = more active; in vitro selection for triplet polymerase activity
Category scheme (polymerase ribozyme fitness (log ratio)): category 1 (below -4), category 2 (-4 to below 0.1), category 3 (0.1 or more)

{"columns": ["monomer.sequence", "group.label"],
 "data": [
  ["GACCAAUCUGCCCUCAGAGCUCGAGAACAUCUUCGGAUGCAGAGGAGGCAGGCUUCGGUGGCGCGUUAGCGCCAACCUCCUUAACCUCCAAUGCAUCCCACCACAUGAUGAUGCCUGAAGAGCCUUGCUUUUUUG", "category 1"],
  ["GACCAAUCUGCCCUCAGAGCUCGAGAACAUCUUCGGAUGCAGAGGAGGCAGGCUUCGGUGGCGCGAUAGCGCCAACGUCCUCAACCUCCAAUGCAUCCCACCACAUGAUGAUGCCUGAAGAGCCUUGGUUACUUG", "category 3"],
  ["GACCAAUCUGCCCUCAGAGCUCGAGAACAUCUUCGGAUGCAGAGGAGGCAGGCUUCGGUGGCGCGAUAGCGGCAACGUCCUCAACGUCCAAAGCAUCCCACCACAUGAUGGUGCCUGAAGAGCCUUGUUUUCUUG", "category 1"],
  ["GACCAAUCUGCCCUCAGAGCUCGAGAACAUCUUCGGAUGCAGAGGAGGCAGGCUUCAGUGGCGCGAUAGCGACAACGUCCUCAAUCUCCAAUGCAUCCGACCACAGGAUGAUGCCUGAAGAGCCUUGGUUUUUUG", "category 1"],
  ["GACCAAUCUGCCCUCAGAGCUCGAGAACAUCUUCGGAUGUAGAGGAGGCAGGCUUCGGUUGCGCGAUAGCGCCAACGUCCUCAACCUCCAAUGCAUCCCACCACAUGAUGAUGCCUGAAGAGCCUUGGUUGUUUG", "category 2"],
  ["GACCAAUCUGCCCUCAGAGCUCGAGAACAUCUUCGGAUGCAGAGGAGGCAGGCUUCGGUGUCGCGAUAGCGCCAACGUCCUCAACCUCCAAUGCAUCCCACCACAUGAUGGUGCCUGAAGAGCCUUGGUUUUUUG", "category 3"],
  ["GACCAAUCUGCUCUCAGAGCUCGAGAACAUCUUCGGAUGCAGAGGAUGCAGGCUUCGGUGGCGCGAUAGCGCCAACGUCCUCAACGUCCAAUGCAUCCCACCACAUGAUGAUGCCUGAAGAACCUUGGUUUUUUG", "category 3"],
  ["GACCAAUCUGCCCUCAGAGCUCGAGAACAUCUUCGGAUUCAGAGGAGGCAGGCUUCGGUGGCGCGAUAGCGCCAACGUCCUCAACCUCCAAUGCAUCCCACCACAUGAUGAUCCCUGAAGAGCCUUGGUUUUUUG", "category 2"],
  ["GACCAAUCUGCCCUCAGAGCUCGAGAACAUCUUCGGAUGCAGAGGAGGCAGGCUGCGGUGGCGCGAUAGCGCCAACCUCCUCAACCUCCAAUGCAUCCCUCCACAUGAUGAUGCCUGAACAGCCUUGGUUAUUUG", "category 3"],
  ["GACCAAUCUUCCCUCAGAGCUCGAGAACAUCUUCGGAUGCAUAGAAGGCAGGCUUCGGUGUCGCGAUAGCGCCAACGUCCUCAAUCUCCAAUGCAUCCCACCACAUGAUGAUGCCUGAAGAGCCUUGGUUUUUUG", "category 2"],
  ["GAUCAAUCUGCCCUCAGAGCUCGAGAACAUCUUCGGAUGCAGAGGAGGCAGGCUUCGGUGGCGCGAUAGCUCCAACGUCCUCAACCUCCAAUGCAUCCCACCACAUGAUGAUGCCUGAAGAGCCGUGGUUUUUUG", "category 2"],
  ["GACCAAUCUGCGCUCAGAGCUCGAGACCAUCUUCGGAUGCAGAGGAGGCAGGCUUCGGUGGCGCGAUAGCGCCAACGUCCUCAACCUCCAAUGCAUCCCACCAUAUGAUGAUUCCUGAAAAACCUUGGUAUUUUG", "category 1"]
]}
